- measurement-target: P2X7 (Homo sapiens (Human))
- Sequence (Q99572 whole entry): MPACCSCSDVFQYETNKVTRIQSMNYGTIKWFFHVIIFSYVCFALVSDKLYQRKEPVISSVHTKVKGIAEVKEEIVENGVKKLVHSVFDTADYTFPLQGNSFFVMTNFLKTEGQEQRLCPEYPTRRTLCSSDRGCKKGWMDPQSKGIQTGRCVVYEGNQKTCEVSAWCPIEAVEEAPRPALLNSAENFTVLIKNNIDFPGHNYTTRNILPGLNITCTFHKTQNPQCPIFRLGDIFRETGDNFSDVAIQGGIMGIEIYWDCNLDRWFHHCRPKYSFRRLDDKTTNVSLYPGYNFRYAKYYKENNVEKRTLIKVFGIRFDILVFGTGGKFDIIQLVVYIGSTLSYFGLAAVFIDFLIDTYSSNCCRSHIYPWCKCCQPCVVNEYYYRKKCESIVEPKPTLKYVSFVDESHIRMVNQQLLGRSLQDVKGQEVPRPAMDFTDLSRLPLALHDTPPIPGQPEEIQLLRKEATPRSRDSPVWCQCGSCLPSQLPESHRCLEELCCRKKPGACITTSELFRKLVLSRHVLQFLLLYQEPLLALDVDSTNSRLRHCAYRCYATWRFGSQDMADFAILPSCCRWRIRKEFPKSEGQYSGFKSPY
- measurement-notes: P2X7 antagonism in human PBMCs (LPS + Bz-ATP induced IL-1β release, ELISA);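 also: PBMCs from donor human blood, with a further 1.5 h incubation of the cells in the assay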
- Type: cell-based
- test-settings: compound 10 μM, LPS 30 ng/ml, Bz-ATP 0.5 mM
metric-name: PBMC 10 μM (% control)

molecule="CC1Cc2c(nnn2-c2ccc(F)cc2)C(C)N1C(=O)c1cccc(C(F)(F)F)c1Cl (centres unmarked)" measurement_target="P2X7 (Homo sapiens (Human))" uom="% control" value_observed=1.0
molecule="C[C@H]1c2nnn(-c3cnccn3)c2CCN1C(=O)c1cccc(C(F)(F)F)c1Cl (single isomer, unassigned)" measurement_target="P2X7 (Homo sapiens (Human))" uom="% control" value_observed=−0.3
molecule="Cc1cccnc1-n1nnc2c1CCN(C(=O)c1cccc(C(F)(F)F)c1Cl)C2C (centres unmarked)" measurement_target="P2X7 (Homo sapiens (Human))" uom="% control" value_observed=−3.5
molecule="CC1c2nnn(-c3ccc(F)cc3)c2CCN1C(=O)c1cccc(C(F)(F)F)c1Cl (centres unmarked)" measurement_target="P2X7 (Homo sapiens (Human))" uom="% control" value_observed=4.5
molecule="CC1c2[nH]nc(C(F)(F)F)c2CCN1C(=O)c1cccc(C(F)(F)F)c1Cl (centres unmarked)" measurement_target="P2X7 (Homo sapiens (Human))" uom="% control" value_observed=22.9
molecule=O=C(c1cccc(C(F)(F)F)c1Cl)N1CCc2c(ncn2-c2ccn[nH]2)C1 measurement_target="P2X7 (Homo sapiens (Human))" uom="% control" value_observed=11.6
molecule="C[C@H]1Cc2c(nnn2-c2ncc(F)cn2)CN1C(=O)c1cccc(C(F)(F)F)c1Cl (single isomer, unassigned)" measurement_target="P2X7 (Homo sapiens (Human))" uom="% control" value_observed=24.1
molecule="CC1c2ncn(-c3ccc(F)cn3)c2CCN1C(=O)c1ccc(F)c(Cl)c1Cl (centres unmarked)" measurement_target="P2X7 (Homo sapiens (Human))" uom="% control" value_observed=−3.1
